System: SK-BR-3
assay comment: Antiproliferation assay SK-BR-3 (Assay 7)
Assay type: cell-based
test parameters: Homo sapiens, SK-BR-3, 72 h, SK-BR-3 cells, CellTiter-Glo, single determinations, read-out: IC50 Antiproli SK-BR-3
Provide the reported IC50 of each item.
Return type: number; implicit unit µM.

What the record says about Cc1c2c(nn1C)COCCCCn1c(C(=O)O)c(CCCOc3cccc4ccccc34)c3ccc(F)c-2c31 (racemic) [Example 2] : IC50 is 7.07

Looking up Cc1c2c(nn1C)COCCCCn1c(C(=O)O)c(CCCOc3cccc4ccccc34)c3ccc(F)c-2c31 (single isomer, unassigned; enantiomer 1) [Example 3] , I found its IC50 recorded as 9.5

Entry CCc1c2c(nn1C)COCCCCn1c(C(=O)O)c(CCCOc3cccc4ccccc34)c3ccc(F)c-2c31 (racemic) [Example 6] , IC50 reported as 7.29

###

study target: MCL-1 (Homo sapiens (Human), UniProt Q07820, K194A/K197A/R201A)
Sequence (Q07820 whole entry K194A/K197A/R201A, looked up): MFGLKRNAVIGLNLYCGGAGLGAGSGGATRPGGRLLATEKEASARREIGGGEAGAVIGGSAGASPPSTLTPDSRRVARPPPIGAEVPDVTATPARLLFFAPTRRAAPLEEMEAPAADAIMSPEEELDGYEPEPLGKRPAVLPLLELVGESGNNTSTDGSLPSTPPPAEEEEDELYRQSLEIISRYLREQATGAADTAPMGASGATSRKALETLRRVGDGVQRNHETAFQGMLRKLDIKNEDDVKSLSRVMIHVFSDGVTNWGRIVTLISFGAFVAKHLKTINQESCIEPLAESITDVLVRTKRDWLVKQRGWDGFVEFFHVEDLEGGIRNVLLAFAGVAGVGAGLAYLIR
assay comment: Protein-protein interaction assay MCL-1/Noxa BH3 peptide (MCL-1 assay), TR-FRET
Type: binding
test parameters: MCL-1/Noxa BH3 peptide TR-FRET; median
outcome measure: IC50 (nM)
Your answer should be a plain number; it is taken to be in nM.

Given item Cc1nn(C)c2c1-c1c(F)ccc3c(CCCOc4cccc5c4CCC5)c(C(=O)O)n(c13)CCCCOC2 (racemic) , the value recorded as its IC50 is 1.3

The value of IC50 measured for the molecule CCc1c2c(nn1C)COCCCCn1c(C(=O)O)c(CCCOc3ccc(F)c4ccccc34)c3ccc(F)c-2c31 (single isomer, unassigned; enantiomer 2) [Example 28] turned out to be 65

Record Cc1c2c(nn1C)COCCCCn1c(C(=O)O)c(CCCOc3cccc4ccccc34)c3ccc(F)c-2c31 (racemic) [Example 2] , field IC50: 1.2

Entry Cc1c2c(nn1C)COCCCCn1c(C(=O)O)c(CCCOc3cccc4cc(F)ccc34)c3ccc(F)c-2c31 (single isomer, unassigned; enantiomer 1) [Example 13] , IC50 reported as 0.98

Short answer for CCc1c2c(nn1C)COCCCCn1c(C(=O)O)c(CCCOc3cccc4cc(F)ccc34)c3ccc(F)c-2c31 (single isomer, unassigned; enantiomer 2) [Example 25] : IC50 was 13

The molecule listed as Cc1c2c(nn1C)CNCCCCn1c(C(=O)O)c(CCCOc3cccc4ccccc34)c3ccc(F)c-2c31 (single isomer, unassigned; enantiomer 1) [Example 48] shows IC50 equal to 1.1

###

study target: MCL-1 (Homo sapiens (Human), UniProt Q07820, K194A/K197A/R201A)
assay comment: Protein-compound interaction assay (SPR assay, Assay 8)
Format: binding
test parameters: immobilized MBP-MCL-1, 25° C., geometric mean
From the text: Assay 8 Protein-Compound Interaction Assay (SPR Assay) The ability of the compounds described in this invention to bind to MCL-1 may be determined using surface plasmon resonance (SPR). This allows for the quantification of binding in terms of the equilibrium dissociation constant (KD [M]), as well as association and dissociation rate constants (kon [1/M 1/s] and koff [1/s], respectively). The measurements may be performed using Biacore® T200 or Biacore® S200 instruments (GE Healthcare). […]
outcome measure: log10 of kon (log10 of the value in M⁻¹ s⁻¹)
Values reflect log10 of reported kon (M⁻¹ s⁻¹).

The measured log10 of kon associated with CCc1c2c(nn1C)COCCCCn1c(C(=O)O)c(CCCOc3cccc4ccccc34)c3ccc(F)c-2c31 (single isomer, unassigned; enantiomer 1) reads 6.78

Please fill in: log10 of kon reported for Cc1c2c(nn1C)COCCCCn1c(C(=O)O)c(CCCOc3cccc4cc(F)ccc34)c3ccc(F)c-2c31 (single isomer, unassigned; enantiomer 1) = 7.04

Recorded result, Cc1c2c(nn1C)COCCCCn1c(C(=O)O)c(CCCOc3cccc4ccccc34)c3ccc(F)c-2c31 (single isomer, unassigned; enantiomer 1) [Example 3] , log10 of kon: 6.66

Lab note: measured log10 of kon of CCc1c2c(nn1C)COCCCCn1c(C(=O)O)c(CCCOc3cccc4cc(F)ccc34)c3ccc(F)c-2c31 (single isomer, unassigned; enantiomer 1) was 6.52

Form: compound = Cc1c2c(nn1C)COCCCCn1c(C(=O)O)c(CCCOc3cccc4ccccc34)c3ccc(F)c-2c31 (racemic) [Example 2] ; log10 of kon = 5.36

Record CCc1nn(C)c2c1-c1c(F)ccc3c(CCCOc4cccc5cc(F)ccc45)c(C(=O)O)n(c13)CCCCOC2 (single isomer, unassigned; enantiomer 1) . Reported log10 of kon: 7.15
